Entry source: patent US20260297060A1

- tgt: BRAF V600E (Homo sapiens, UniProt P15056+Q96SW2, V600E)
- Construct: knock-in of the HiBiT tag to the endogenous BRAF V600E locus; host or cells: A375.10 (A375 clonal line, CRISPR HiBiT knock-in at the endogenous BRAF V600E locus)
- Sequence (P15056 whole entry V600E): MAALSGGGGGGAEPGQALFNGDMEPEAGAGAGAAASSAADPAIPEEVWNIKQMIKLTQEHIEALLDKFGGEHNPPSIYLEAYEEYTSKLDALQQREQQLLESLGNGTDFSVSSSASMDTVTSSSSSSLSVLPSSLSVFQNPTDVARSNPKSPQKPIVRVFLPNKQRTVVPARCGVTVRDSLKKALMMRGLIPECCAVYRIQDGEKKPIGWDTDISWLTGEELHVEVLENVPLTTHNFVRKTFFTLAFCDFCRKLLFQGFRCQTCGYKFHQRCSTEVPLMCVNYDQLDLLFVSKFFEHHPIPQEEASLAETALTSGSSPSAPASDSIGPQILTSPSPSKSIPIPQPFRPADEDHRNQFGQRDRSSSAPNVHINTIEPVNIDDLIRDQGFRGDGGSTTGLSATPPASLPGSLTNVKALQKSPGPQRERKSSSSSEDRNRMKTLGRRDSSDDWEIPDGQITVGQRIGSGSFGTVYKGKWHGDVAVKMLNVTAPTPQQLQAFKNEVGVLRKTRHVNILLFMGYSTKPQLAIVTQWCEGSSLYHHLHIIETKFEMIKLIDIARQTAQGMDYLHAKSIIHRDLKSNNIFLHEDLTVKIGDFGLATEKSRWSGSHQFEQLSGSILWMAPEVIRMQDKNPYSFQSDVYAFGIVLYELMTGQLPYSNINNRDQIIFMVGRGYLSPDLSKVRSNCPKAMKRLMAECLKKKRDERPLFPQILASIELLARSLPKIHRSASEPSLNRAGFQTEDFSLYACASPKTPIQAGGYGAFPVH
- Sequence (Q96SW2 whole entry): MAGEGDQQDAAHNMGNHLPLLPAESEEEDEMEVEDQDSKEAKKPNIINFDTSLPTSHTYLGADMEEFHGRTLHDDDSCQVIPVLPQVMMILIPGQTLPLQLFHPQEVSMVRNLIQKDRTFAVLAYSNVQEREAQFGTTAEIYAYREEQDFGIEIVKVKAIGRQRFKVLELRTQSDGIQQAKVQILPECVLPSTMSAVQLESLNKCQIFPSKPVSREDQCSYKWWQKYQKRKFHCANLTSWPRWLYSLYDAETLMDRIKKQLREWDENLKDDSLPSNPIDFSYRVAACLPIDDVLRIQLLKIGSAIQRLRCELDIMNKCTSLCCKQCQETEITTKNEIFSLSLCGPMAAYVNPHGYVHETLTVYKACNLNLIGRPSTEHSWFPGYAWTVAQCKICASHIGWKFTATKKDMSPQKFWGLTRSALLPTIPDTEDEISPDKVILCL
- Sequence (Q16531 whole entry partner): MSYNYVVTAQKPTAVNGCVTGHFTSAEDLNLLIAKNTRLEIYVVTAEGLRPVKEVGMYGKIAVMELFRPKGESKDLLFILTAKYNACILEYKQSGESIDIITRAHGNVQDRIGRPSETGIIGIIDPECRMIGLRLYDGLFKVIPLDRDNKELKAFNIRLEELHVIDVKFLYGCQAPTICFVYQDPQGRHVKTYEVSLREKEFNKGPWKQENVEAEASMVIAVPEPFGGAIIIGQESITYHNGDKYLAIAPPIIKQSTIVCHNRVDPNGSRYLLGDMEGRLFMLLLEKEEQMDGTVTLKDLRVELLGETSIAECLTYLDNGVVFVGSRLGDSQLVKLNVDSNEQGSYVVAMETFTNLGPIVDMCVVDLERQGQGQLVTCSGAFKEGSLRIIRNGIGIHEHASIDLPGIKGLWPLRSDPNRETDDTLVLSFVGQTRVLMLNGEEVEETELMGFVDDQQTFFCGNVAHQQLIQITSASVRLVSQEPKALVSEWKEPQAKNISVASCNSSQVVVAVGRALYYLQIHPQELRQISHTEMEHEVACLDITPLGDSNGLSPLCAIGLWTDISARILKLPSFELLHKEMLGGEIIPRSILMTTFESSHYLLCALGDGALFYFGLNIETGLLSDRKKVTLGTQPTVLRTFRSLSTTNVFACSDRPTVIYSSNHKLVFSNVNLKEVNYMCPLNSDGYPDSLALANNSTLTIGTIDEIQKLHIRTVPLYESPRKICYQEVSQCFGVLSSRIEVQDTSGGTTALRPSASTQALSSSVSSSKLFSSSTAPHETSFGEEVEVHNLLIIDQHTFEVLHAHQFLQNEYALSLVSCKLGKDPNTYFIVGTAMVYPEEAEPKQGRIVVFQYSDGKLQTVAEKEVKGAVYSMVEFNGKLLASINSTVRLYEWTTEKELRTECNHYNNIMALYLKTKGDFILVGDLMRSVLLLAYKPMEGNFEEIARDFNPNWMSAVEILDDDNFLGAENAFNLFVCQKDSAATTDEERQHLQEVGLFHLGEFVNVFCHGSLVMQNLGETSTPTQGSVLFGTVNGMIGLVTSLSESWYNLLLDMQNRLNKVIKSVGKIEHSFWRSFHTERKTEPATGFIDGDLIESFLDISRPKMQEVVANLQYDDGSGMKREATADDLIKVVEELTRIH
- experiment notes: BRAF V600E HiBiT Degradation Assay
- Type: cell-based
- measurement setup: A375.10 cells, BRAF V600E, 2 hours; residual protein remaining
reported endpoint: HiBiT-Degradation A375.10 BRAF 2 hours Emax

{"compound": "CN(CCO)S(=O)(=O)Nc1ccc(F)c(Oc2ccc3ncn([C@H]4COC5(CCC(N6CCC(c7cc8c(cc7F)c(N7CCC(=O)NC7=O)nn8C)C(F)(F)C6)CC5)C4)c(=O)c3c2)c1C#N (single isomer, unassigned) [Compound 214]", "assay value": "*** (<=50%)"}
{"compound": "CCN(C)S(=O)(=O)Nc1ccc(F)c(Oc2ccc3ncn([C@H]4CO[C@@]5(CCN(C6CCC(c7cc8c(cc7F)c(N7CCC(=O)NC7=O)nn8C)CC6)C5)C4)c(=O)c3c2)c1C#N (single isomer, unassigned) [Compound 293]", "assay value": "*** (<=50%)"}
{"compound": "CO[C@H]1CCN(S(=O)(=O)Nc2ccc(F)c(Oc3ccc4ncn(C5CC6(CCN(C7CCC(c8cc9c(cc8F)c(N8CCC(=O)NC8=O)nn9C)CC7)CC6)C5)c(=O)c4c3)c2C#N)C1 (single isomer, unassigned) [Compound 104]", "assay value": "*** (<=50%)"}
